test system: VDR homodimer (NR concentration 270 nM); test: PBM binding z-score (relative to random genomic background probes); higher = stronger binding; sequences stand for … in GC…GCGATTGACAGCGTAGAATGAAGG
The recorded PBM binding z-score of each item maps onto one of these classes: class 1: < 0.5; class 2: ≥ 0.5 and < 3; class 3: ≥ 3

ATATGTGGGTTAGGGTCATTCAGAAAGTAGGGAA    class 3
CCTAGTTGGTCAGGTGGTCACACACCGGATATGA    class 1
CTATGTAGGTTAAGGGGGTCTTTCAGTTTGAAAG    class 2
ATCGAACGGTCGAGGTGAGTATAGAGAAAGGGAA    class 1
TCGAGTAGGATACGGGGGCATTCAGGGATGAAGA    class 2

Could you now look at the following sequence, please?
Prompt: Hey, which category is AGTCAAAGTTCAGGACGAGGTAAAGTAAAGCACG in, do you know?
Response: class 2
